I'd be grateful if you could share measured TGI for these entries.
- Test system: RPMI-8226 leukemia
- test description: NCI tumour cell line growth inhibition, 48 h

{"compound": "O=C1c2ccccc2C2CCC1c1ccccc12 (configuration not stated)", "tested target": "RPMI-8226 leukemia", "TGI": "57 µM"}
{"compound": "Nc1nc(NCCCO)cc(=O)[nH]1", "tested target": "RPMI-8226 leukemia", "TGI": "> 100 µM"}
{"compound": "COC1CC(OC2C(C)OC(OC3C(C)OC(OC4C(C)OC(O[C@H]5CC[C@@]6(C)C(=CC[C@]7(O)[C@@H]6C[C@@H](OC(C)=O)[C@@]6(C)[C@]7(O)CC[C@@]6(O)C(C)=O)C5)CC4OC)CC3OC)CC2OC)OC(C)C1O (some centres not stated)", "tested target": "RPMI-8226 leukemia", "TGI": "> 25 µM"}
{"compound": "C=CC1CN(C(=O)OCC)N(C(=O)OCC)C1CCc1ccccc1 (configuration not stated)", "tested target": "RPMI-8226 leukemia", "TGI": "> 100 µM"}
{"compound": "O=[N+]([O-])c1cc([N+](=O)[O-])c(Nn2c3ccccc3c3ccccc32)c([N+](=O)[O-])c1", "tested target": "RPMI-8226 leukemia", "TGI": "0.56 µM"}
{"compound": "CC1=C(O)c2ccccc2C(=O)C1=O", "tested target": "RPMI-8226 leukemia", "TGI": "> 100 µM"}
{"compound": "O=C(Nc1ccc(Cl)cc1Cl)OC(Cn1cncn1)c1ccc(Cl)cc1Cl (configuration not stated)", "tested target": "RPMI-8226 leukemia", "TGI": "> 100 µM"}
{"compound": "COc1cc(C2c3cc4c(cc3C(OC(=O)C[n+]3ccccc3)C3COC(=O)C23)OCO4)cc(OC)c1OC (configuration not stated)", "tested target": "RPMI-8226 leukemia", "TGI": "> 100 µM"}

Please go through the list and note TGI for each compound.
1. CC(=O)c1cc(C(=O)c2ccc3c(c2)Sc2ccccc2N3)n2ccccc12
2. COC(=O)CCNC(=O)OCc1ccccc1
3. CC1CCC2CC(=O)OC([C@@H]3C(=O)O[C@@H](C4=CCCC4)C4C(C)CCC43)C12 (some centres not stated)
4. CC(=O)c1ccc2c(c1)CC1(C2)Cc2cc3c(c(C(=O)O)c2C1)CCC3 (configuration not stated)

## Result
20.6 µM
> 100 µM
> 100 µM
> 100 µM
